- Measurement Target: P2X7 receptor (Homo sapiens (Human))
- Measurement Description: Human P2X7 channel calcium-influx assay (Fluo-8 NW, FLIPR TETRA, Bz-ATP stimulation)
- Assay Context: HEK-293 cells stably transfected with P2X7 receptor, Low Divalent Cation Assay Buffer, read-out: hP2X7 IC50
Observed Property: IC50 (nM)

Guide cases for IC50, answers given:
Cc1ncnc(OC2CCN(C(CNC(=O)c3c(F)cccc3Cl)c3scnc3C(F)F)CC2)c1F (centres unmarked) ... 53.8
N#Cc1ncccc1OC1CCN(C(CNC(=O)c2c(F)cccc2Cl)c2scnc2C(F)F)CC1 (centres unmarked) ... 41.1
O=C(NCC(c1scnc1C(F)F)N1CCC(Oc2nc(Cl)cs2)CC1)c1c(F)cccc1Cl (centres unmarked) ... 11.8
O=C(NCC(c1scnc1C(F)F)N1CCC(Oc2cncc(-n3cccn3)n2)CC1)c1c(F)cccc1Cl (centres unmarked) ... 27.4
Cc1cc(COC2CCN(C(CNC(=O)c3c(F)cccc3Cl)c3scnc3C(F)F)CC2)no1 (centres unmarked) ... 47.8

1 = N#Cc1cc(OCC2CCN(C(CNC(=O)c3c(F)cccc3Cl)c3scnc3C(F)F)CC2)ccn1 (centres unmarked)
2 = O=C(NCC(c1scnc1C(F)F)N1CCC(Oc2cc(F)ccn2)CC1)c1c(F)cccc1Cl (centres unmarked)
3 = O=C(NCC(c1scnc1C(F)F)N1CCC(Oc2cccnn2)CC1)c1c(F)cccc1Cl (centres unmarked)
Hey, quick one: sort these by IC50, low to high? Present the labels in the sequence the task asks for. 2, 1, 3

----------
- Measurement Target: mP2X7 (Mus musculus (Mouse), UniProt Q9Z1M0)
- Sequence (Q9Z1M0 whole entry): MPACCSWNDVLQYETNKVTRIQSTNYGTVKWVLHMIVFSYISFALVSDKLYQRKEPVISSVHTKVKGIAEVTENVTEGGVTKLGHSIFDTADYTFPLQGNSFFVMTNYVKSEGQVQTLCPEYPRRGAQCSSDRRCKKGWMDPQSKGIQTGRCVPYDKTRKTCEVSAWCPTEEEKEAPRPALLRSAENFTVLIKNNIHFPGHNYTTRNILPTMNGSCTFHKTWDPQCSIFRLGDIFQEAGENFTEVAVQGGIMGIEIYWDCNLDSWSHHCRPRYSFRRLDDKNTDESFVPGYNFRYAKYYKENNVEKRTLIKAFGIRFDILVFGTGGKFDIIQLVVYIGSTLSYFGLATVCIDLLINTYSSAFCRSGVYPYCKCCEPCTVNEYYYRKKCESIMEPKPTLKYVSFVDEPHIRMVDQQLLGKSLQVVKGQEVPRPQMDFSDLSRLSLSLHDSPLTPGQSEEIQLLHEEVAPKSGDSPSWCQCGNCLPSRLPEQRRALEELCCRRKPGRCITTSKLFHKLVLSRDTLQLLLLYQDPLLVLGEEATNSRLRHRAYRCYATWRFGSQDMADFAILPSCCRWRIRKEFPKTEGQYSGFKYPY
- Measurement Description: mP2X7 channel calcium-influx assay (Fluo-8 NW, FLIPR TETRA, Bz-ATP stimulation)
Observed Property: IC50 (nM)

The examples below pair each entry with its known result.
O=C(NCC(c1scnc1C(F)F)N1CCC(Oc2cccc(F)n2)CC1)c1c(F)cccc1Cl (stereo not shown) ... 29.4
Cc1cccc(OCC2CCN(C(CNC(=O)c3c(F)cccc3Cl)c3scnc3C(F)F)CC2)n1 (stereo not shown) ... 25.2

a = COc1nccc(OC2CCN(C(CNC(=O)c3c(F)cccc3Cl)c3scnc3C(F)F)CC2)n1 (stereo not shown)
b = O=C(NCC(c1scnc1C(F)F)N1CCC(COc2nnnn2-c2ccccc2)CC1)c1c(F)cccc1Cl (stereo not shown)
Among a and b , which shows a numerically higher IC50 result? Your answer should be the label attached to the chosen record. a

----------
- Measurement Target: P2X7 receptor (Homo sapiens (Human), UniProt Q99572)
- Sequence (Q99572 whole entry): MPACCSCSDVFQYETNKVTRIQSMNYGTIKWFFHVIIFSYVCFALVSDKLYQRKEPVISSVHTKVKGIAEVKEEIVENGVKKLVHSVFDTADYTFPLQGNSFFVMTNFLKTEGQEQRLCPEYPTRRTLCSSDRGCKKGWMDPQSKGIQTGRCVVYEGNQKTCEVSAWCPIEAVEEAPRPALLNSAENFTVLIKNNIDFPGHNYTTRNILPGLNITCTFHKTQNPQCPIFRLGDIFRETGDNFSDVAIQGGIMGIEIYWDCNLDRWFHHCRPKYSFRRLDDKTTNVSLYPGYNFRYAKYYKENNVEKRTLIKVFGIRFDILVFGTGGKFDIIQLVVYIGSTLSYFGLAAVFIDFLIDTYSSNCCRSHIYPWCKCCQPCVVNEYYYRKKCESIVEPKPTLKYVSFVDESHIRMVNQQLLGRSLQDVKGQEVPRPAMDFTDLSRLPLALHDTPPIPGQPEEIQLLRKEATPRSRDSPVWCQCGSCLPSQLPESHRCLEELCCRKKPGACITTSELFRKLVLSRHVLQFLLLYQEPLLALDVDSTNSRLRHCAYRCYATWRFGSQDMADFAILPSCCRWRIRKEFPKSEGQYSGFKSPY
- Measurement Description: Human P2X7 channel calcium-influx assay (Fluo-8 NW, FLIPR TETRA, Bz-ATP stimulation)
- Assay Context: HEK-293 cells stably transfected with P2X7 receptor, Low Divalent Cation Assay Buffer, read-out: hP2X7 IC50
Observed Property: IC50 (nM)

Use these answered entries as a reference point.
Cc1cccnc1OCC1CCN(C(CNC(=O)c2c(F)cccc2Cl)c2scnc2C(F)F)CC1 (stereo not shown) [Example 99] ... 22.8
N#Cc1ccnc(OC2CCN(C(CNC(=O)c3c(F)cccc3Cl)c3scnc3C(F)F)CC2)c1 (stereo not shown) [Example 79] ... 30.1

1 = O=C(NCC(c1scnc1C(F)F)N1CCC(Oc2ccnc(F)c2)CC1)c1c(F)cccc1Cl (stereo not shown) [Example 80]
2 = O=C(NCC(c1scnc1C(F)F)N1CCC(Oc2cncc(Cl)n2)CC1)c1c(F)cccc1Cl (stereo not shown) [Example 76]
Which record would sort first by descending IC50, 1 or 2 ? Give the label under which the chosen entry appears. 2
(2: 43.7 nM, 1: 20.3 nM)

----------
- Measurement Target: UniProt:Q99572
- Measurement Description: Human P2X7 channel calcium-influx assay (Fluo-8 NW, FLIPR TETRA, Bz-ATP stimulation)
- Assay Context: HEK-293 cells stably transfected with P2X7 receptor, Low Divalent Cation Assay Buffer, read-out: hP2X7 IC50
Observed Property: IC50 (nM)

O=C(NCC(c1scnc1C(F)F)N1CCC(Oc2ccnc(F)n2)CC1)c1c(F)cccc1Cl (stereo not shown) [Example 35] ... 71.1

A = Cc1cnc(OCC2CCN(C(CNC(=O)c3c(F)cccc3Cl)c3scnc3C(F)F)CC2)nc1 (stereo not shown) [Example 100]
B = O=C(NCC(c1scnc1C(F)F)N1CCC(Oc2nccnc2F)CC1)c1c(F)cccc1Cl (stereo not shown) [Example 34]
Out of A and B , name the one with the higher IC50. Answer format: the label of the selected item. B
(B: 55.5 nM, A: 37.8 nM)

----------
- Measurement Target: mP2X7 (Mus musculus (Mouse), UniProt Q9Z1M0)
- Measurement Description: mP2X7 channel calcium-influx assay (Fluo-8 NW, FLIPR TETRA, Bz-ATP stimulation)
pIC50: −log10 of the molar value.
Observed Property: pIC50

# example entries with known answers
O=C(NCC(c1scnc1C(F)F)N1CCC(Oc2ccnc3cccnc23)CC1)c1c(F)cccc1Cl (centres unmarked) ... 7.44
Cc1cnc(OC2CCN(C(CNC(=O)c3c(F)cccc3Cl)c3scnc3C(F)F)CC2)nc1 (centres unmarked) ... 6.69
Cc1cnc(OCC2CCN(C(CNC(=O)c3c(F)cccc3Cl)c3scnc3C(F)F)CC2)nc1 (centres unmarked) ... 7.18

I = N#Cc1ncccc1OC1CCN(C(CNC(=O)c2c(F)cccc2Cl)c2scnc2C(F)F)CC1 (centres unmarked)
II = Cc1c(F)ncnc1OC1CCN(C(CNC(=O)c2c(F)cccc2Cl)c2scnc2C(F)F)CC1 (centres unmarked)
Task for the reader: decide whether I or II has the larger pIC50. Bench note: the answer is the label of the chosen record. II

----------
- Measurement Target: mP2X7 (Mus musculus (Mouse), UniProt Q9Z1M0)
- Measurement Description: mP2X7 channel calcium-influx assay (Fluo-8 NW, FLIPR TETRA, Bz-ATP stimulation)
- Format: cell-based
Observed Property: IC50 (nM)

Field: example entries. Status: answers known.
O=C(NCC(c1scnc1C(F)F)N1CCC(Oc2cncc(F)c2)CC1)c1c(F)cccc1Cl (centres unmarked) ... 26.9
O=C(NCC(c1scnc1C(F)F)N1CCC(Oc2ccccn2)CC1)c1c(F)cccc1Cl (centres unmarked) ... 53.5
O=C(NCC(c1scnc1C(F)F)N1CCC(COc2ccn3nccc3n2)CC1)c1c(F)cccc1Cl (centres unmarked) ... 35.8
O=C(NCC(c1scnc1C(F)F)N1CCC(Oc2ncccc2Cl)CC1)c1c(F)cccc1Cl (centres unmarked) ... 43.9
N#Cc1cc(OC2CCN(C(CNC(=O)c3c(F)cccc3Cl)c3scnc3C(F)F)CC2)ccn1 (centres unmarked) ... 61.7
N#Cc1cc(OCC2CCN(C(CNC(=O)c3c(F)cccc3Cl)c3scnc3C(F)F)CC2)ccn1 (centres unmarked) ... 25
Cc1nc(F)cc(OC2CCN(C(CNC(=O)c3c(F)cccc3Cl)c3scnc3C(F)F)CC2)n1 (centres unmarked) ... 44.6
COCCc1nsc(OC2CCN(C(CNC(=O)c3c(F)cccc3Cl)c3scnc3C(F)F)CC2)n1 (centres unmarked) ... 183
N#Cc1cnccc1OC1CCN(C(CNC(=O)c2c(F)cccc2Cl)c2scnc2C(F)F)CC1 (centres unmarked) ... 224
O=C(NCC(c1scnc1C(F)F)N1CCC(Oc2nnnn2-c2ccccc2)CC1)c1c(F)cccc1Cl (centres unmarked) ... 45.8

1 = Cc1ncnc(OC2CCN(C(CNC(=O)c3c(F)cccc3Cl)c3scnc3C(F)F)CC2)c1F (centres unmarked)
2 = O=C(NCC(c1scnc1C(F)F)N1CCC(Oc2cccnn2)CC1)c1c(F)cccc1Cl (centres unmarked)
3 = Cc1c(F)ncnc1OCC1CCN(C(CNC(=O)c2c(F)cccc2Cl)c2scnc2C(F)F)CC1 (centres unmarked)
Exam item: list the entries in increasing order of IC50. State the ranking by listing the labels in the requested order. 3, 1, 2

P = O=C(NCC(c1scnc1C(F)F)N1CCC(Oc2ccnc(F)c2)CC1)c1c(F)cccc1Cl (centres unmarked)
Q = O=C(NCC(c1scnc1C(F)F)N1CCC(Oc2ccncn2)CC1)c1c(F)cccc1Cl (centres unmarked)
R = Cc1nsc(OCC2CCN(C(CNC(=O)c3c(F)cccc3Cl)c3scnc3C(F)F)CC2)n1 (centres unmarked)
Kindly order the items shown according to IC50, from the highest value down. Response format: the labels, sorted as the prompt asks. Q, R, P

I = O=C(NCC(c1scnc1C(F)F)N1CCC(Oc2cc(F)ncn2)CC1)c1c(F)cccc1Cl (centres unmarked)
II = O=C(NCC(c1scnc1C(F)F)N1CCC(Oc2nc(Cl)cs2)CC1)c1c(F)cccc1Cl (centres unmarked)
III = O=C(NCC(c1scnc1C(F)F)N1CCC(Oc2nc3ccccc3s2)CC1)c1c(F)cccc1Cl (centres unmarked)
Task field, ranking: reported IC50, descending order. Please list the labels in the order you were asked to rank them. I, II, III
(I: 136 nM, II: 43.9 nM, III: 14 nM)

P = O=C(NCC(c1scnc1C(F)F)N1CCC(Oc2ccnc(F)n2)CC1)c1c(F)cccc1Cl (centres unmarked)
Q = O=C(NCC(c1scnc1C(F)F)N1CCC(Oc2cncc(Cl)n2)CC1)c1c(F)cccc1Cl (centres unmarked)
R = O=C(NCC(c1scnc1C(F)F)N1CCC(Oc2cncc3nncn23)CC1)c1c(F)cccc1Cl (centres unmarked)
S = Cc1ccc(OC2CCN(C(CNC(=O)c3c(F)cccc3Cl)c3scnc3C(F)F)CC2)nn1 (centres unmarked)
Order the records, beginning with the lowest IC50 and ending with the highest. Output the labels ranked as instructed. Q, S, P, R
(Q: 28.9 nM, S: 87.6 nM, P: 190 nM, R: 550 nM)
